Give Rank - non-prewash for every item shown.
biological target: T1, transferrin (human, UniProt P02787 20-698); test: peptide microarray without organic prewash, Alexa 555 transferrin with Alexa 647 E. coli lysate; rank by the score of Example 2
T1 construct: also called TRF; pooled human transferrin (Sigma)
T1 sequence (P02787 20-698 limits assumed): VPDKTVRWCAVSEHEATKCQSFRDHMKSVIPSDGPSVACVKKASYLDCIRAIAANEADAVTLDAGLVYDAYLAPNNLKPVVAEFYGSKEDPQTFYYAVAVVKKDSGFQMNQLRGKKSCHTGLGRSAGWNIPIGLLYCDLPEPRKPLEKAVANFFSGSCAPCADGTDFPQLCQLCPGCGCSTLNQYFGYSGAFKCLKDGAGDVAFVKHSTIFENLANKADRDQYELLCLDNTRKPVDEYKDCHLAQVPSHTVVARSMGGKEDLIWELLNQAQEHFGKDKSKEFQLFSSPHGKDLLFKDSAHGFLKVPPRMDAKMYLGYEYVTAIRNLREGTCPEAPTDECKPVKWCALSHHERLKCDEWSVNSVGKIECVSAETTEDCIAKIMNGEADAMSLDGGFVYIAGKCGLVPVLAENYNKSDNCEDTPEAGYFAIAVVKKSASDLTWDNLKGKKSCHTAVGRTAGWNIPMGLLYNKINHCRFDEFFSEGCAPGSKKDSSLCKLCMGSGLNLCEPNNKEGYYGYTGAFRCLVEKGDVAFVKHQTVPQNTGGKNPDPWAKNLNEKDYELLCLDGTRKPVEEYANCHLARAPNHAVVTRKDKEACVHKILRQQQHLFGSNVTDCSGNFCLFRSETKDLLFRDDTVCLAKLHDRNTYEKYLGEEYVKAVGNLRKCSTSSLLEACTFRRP
Answers are plain numbers, in rank.

KEDNPGYSSEQDYNKLDGSC (20-mer ending GSC; on arrays attached by the C-terminal Cys) [TRF19] ... 5010

// each binder listed below needs its Rank - non-prewash
1. APYAPQQIHYWSTLGFKGSC (20-mer ending GSC) [TRF25]
2. SVKPWRPLITGNRWLNSGSC (20-mer ending GSC) [TRF24]
3. HAYKGPGDMRRFNHSGMGSC (20-mer ending GSC) [TRF22]
4. FRGWAHIFFGPHVIYRGGSC (20-mer ending GSC) [TRF23]
5. RFQLTQHYAQFWGHYTWGSC (20-mer ending GSC) [TRF28]
6. GQTQFAMHRFQQWYKIKGSC (20-mer ending GSC) [TRF20]

Resp:
1. 736
2. 71
3. 711
4. 2720
5. 601
6. 18

The following binders each have a reported value; give each one's Rank - non-prewash.
1. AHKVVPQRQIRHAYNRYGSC (20-mer ending GSC; also called TRF26 Lead Peptide) [TRF26]
2. LDPLFNTSIMVNWHRWMGSC [TRF27]
3. QYHHFMNLKRQGRAQAYGSC (20-mer ending GSC) [TRF21]

Resp:
596
1290
84
